# Test system: E. faecalis
# Test: MIC, broth microdilution
# Assay type: cell-based
# Experimental Context: Enterococcus faecalis, read-out: Average MIC value, E. faecalis VAN^R,TEI^R/VanA, 1 strain
Endpoint Label: MIC

Input line: I would be grateful if you could share the reported MIC for CC(=O)N[C@H]1[C@H](O[C@@H]2c3ccc(c(Cl)c3)Oc3cc4cc(c3O)Oc3ccc(cc3Cl)C[C@H]3NC(=O)[C@H](n5cc(COCCCC(F)(F)C(F)(F)C(F)(F)C(F)(F)C(F)(F)C(F)(F)F)nn5)c5ccc(O)c(c5)Oc5cc(O)cc(c5)[C@H](NC3=O)C(=O)N[C@H]4C(=O)N[C@H]3C(=O)N[C@@H]2C(=O)N[C@H](C(=O)O)c2cc(O)cc(O)c2-c2cc3ccc2O)O[C@H](CO)[C@@H](O)[C@@H]1O .
Output line: > 8 µg/mL

---

Can you tell me MIC for the items I'm about to list?
# System: S. aureus
# Test: MIC, broth microdilution
# Assay type: cell-based
# Experimental Context: Staphylococcus aureus, MSSA / NEWMAN, read-out: MIC value, S. aureus Newman, MSSA
Numbers only, in µg/mL.

Input line: I would be grateful if you could share the reported MIC for CN[C@H](CC(C)C)C(=O)N[C@H]1C(=O)N[C@@H](CC(N)=O)C(=O)N[C@H]2C(=O)N[C@H]3C(=O)N[C@H](C(=O)N[C@H](C(=O)O)c4cc(O)cc(O)c4-c4cc3ccc4O)[C@H](O[C@H]3C[C@](C)(N)[C@@H](O)[C@H](C)O3)c3ccc(c(Cl)c3)Oc3cc2cc(c3O[C@@H]2O[C@H](CO)[C@@H](O)[C@H](O)[C@H]2O[C@H]2C[C@](C)(NCc3ccc(-c4ccc(Cl)cc4)cc3)[C@@H](O)[C@H](C)O2)Oc2ccc(cc2Cl)[C@H]1O [ORI, oritavancin, reference compound] .
Output line: 0.0625

Input line: I would be grateful if you could share the reported MIC for CC(=O)N[C@H]1[C@H](O[C@@H]2c3ccc(c(Cl)c3)Oc3cc4cc(c3O)Oc3ccc(cc3Cl)C[C@H]3NC(=O)[C@H](n5cc(COCCOCCCC(F)(F)C(F)(F)C(F)(F)C(F)(F)F)nn5)c5ccc(O)c(c5)Oc5cc(O)cc(c5)[C@H](NC3=O)C(=O)N[C@H]4C(=O)N[C@H]3C(=O)N[C@@H]2C(=O)N[C@H](C(=O)O)c2cc(O)cc(O)c2-c2cc3ccc2O)O[C@H](CO)[C@@H](O)[C@@H]1O .
Output line: 0.5

Input line: I would be grateful if you could share the reported MIC for CC(=O)N[C@H]1[C@H](O[C@@H]2c3ccc(c(Cl)c3)Oc3cc4cc(c3O)Oc3ccc(cc3Cl)C[C@H]3NC(=O)[C@H](NC(=O)CCC(F)(F)C(F)(F)C(F)(F)C(F)(F)C(F)(F)C(F)(F)C(F)(F)C(F)(F)F)c5ccc(O)c(c5)Oc5cc(O)cc(c5)[C@H](NC3=O)C(=O)N[C@H]4C(=O)N[C@H]3C(=O)N[C@@H]2C(=O)N[C@H](C(=O)O)c2cc(O)cc(O)c2-c2cc3ccc2O)O[C@H](CO)[C@@H](O)[C@@H]1O .
Output line: 2

Input line: I would be grateful if you could share the reported MIC for CC(=O)N[C@H]1[C@H](O[C@@H]2c3ccc(c(Cl)c3)Oc3cc4cc(c3O)Oc3ccc(cc3Cl)C[C@H]3NC(=O)[C@H](NC(=N)N)c5ccc(O)c(c5)Oc5cc(O)cc(c5)[C@H](NC3=O)C(=O)N[C@H]4C(=O)N[C@H]3C(=O)N[C@@H]2C(=O)N[C@H](C(=O)O)c2cc(O)cc(O)c2-c2cc3ccc2O)O[C@H](CO)[C@@H](O)[C@@H]1O .
Output line: 0.25

Input line: I would be grateful if you could share the reported MIC for CC(=O)N[C@H]1[C@H](O[C@@H]2c3ccc(c(Cl)c3)Oc3cc4cc(c3O)Oc3ccc(cc3Cl)C[C@H]3NC(=O)[C@H](n5cc(COCCCC(F)(F)C(F)(F)C(F)(F)C(F)(F)C(F)(F)C(F)(F)F)nn5)c5ccc(O)c(c5)Oc5cc(O)cc(c5)[C@H](NC3=O)C(=O)N[C@H]4C(=O)N[C@H]3C(=O)N[C@@H]2C(=O)N[C@H](C(=O)O)c2cc(O)cc(O)c2-c2cc3ccc2O)O[C@H](CO)[C@@H](O)[C@@H]1O .
Output line: 2

Please look at the following compound next.
Input line: I would be grateful if you could share the reported MIC for CN[C@H](CC(C)C)C(=O)N[C@H]1C(=O)N[C@@H](CC(N)=O)C(=O)N[C@H]2C(=O)N[C@H]3C(=O)N[C@H](C(=O)N[C@H](C(=O)O)c4cc(O)cc(O)c4-c4cc3ccc4O)[C@H](O)c3ccc(c(Cl)c3)Oc3cc2cc(c3O[C@@H]2O[C@H](CO)[C@@H](O)[C@H](O)[C@H]2O[C@H]2C[C@](C)(N)[C@H](O)[C@H](C)O2)Oc2ccc(cc2Cl)[C@H]1O [VAN, vancomycin, reference compound] .
Output line: 0.5

---

# Tested on: SARS-CoV-2
# Test: microbe, parasite or virus in culture
# Type: cell-based
# Experimental Context: Severe acute respiratory syndrome coronavirus 2, Vero C1008, 72 h; Vero E6 cells, three days, XTT; read-out: EC50, CPE reduction, SARS-CoV-2 in Vero E6 cells
Can you tell me EC50 for the items I'm about to list?
Answers are plain numbers, in µM.

Input line: I would be grateful if you could share the reported EC50 for CCC(CC)COC(=O)[C@H](C)N[P@](=O)(OC[C@H]1O[C@@](C#N)(c2ccc3c(N)ncnn23)[C@H](O)[C@@H]1O)Oc1ccccc1 [Remdesivir, remdesivir, reference compound] .
Output line: 2.5

Please look at the following molecule next.
Input line: I would be grateful if you could share the reported EC50 for O=C(O)CCC(F)(F)C(F)(F)C(F)(F)C(F)(F)C(F)(F)C(F)(F)C(F)(F)C(F)(F)F [Compound 14] .
Output line: 19

---

# Tested on: E. faecalis
# Test: MIC, broth microdilution
# Assay type: cell-based
# Experimental Context: Enterococcus faecalis, read-out: MIC value, E.faecalis OG1RF
Endpoint Label: MIC (µg/mL)
One number for each entry, in µg/mL.

Hi, could you look up MIC for each item in my list?
1. CN[C@H](CC(C)C)C(=O)N[C@H]1C(=O)N[C@@H](CC(N)=O)C(=O)N[C@H]2C(=O)N[C@H]3C(=O)N[C@H](C(=O)N[C@H](C(=O)O)c4cc(O)cc(O)c4-c4cc3ccc4O)[C@H](O)c3ccc(c(Cl)c3)Oc3cc2cc(c3O[C@@H]2O[C@H](CO)[C@@H](O)[C@H](O)[C@H]2O[C@H]2C[C@](C)(N)[C@H](O)[C@H](C)O2)Oc2ccc(cc2Cl)[C@H]1O [VAN, vancomycin, reference compound]
2. CC(=O)N[C@H]1[C@H](O[C@@H]2c3ccc(c(Cl)c3)Oc3cc4cc(c3O)Oc3ccc(cc3Cl)C[C@H]3NC(=O)[C@H](n5cc(COCCCC(F)(F)C(F)(F)C(F)(F)C(F)(F)C(F)(F)C(F)(F)F)nn5)c5ccc(O)c(c5)Oc5cc(O)cc(c5)[C@H](NC3=O)C(=O)N[C@H]4C(=O)N[C@H]3C(=O)N[C@@H]2C(=O)N[C@H](C(=O)O)c2cc(O)cc(O)c2-c2cc3ccc2O)O[C@H](CO)[C@@H](O)[C@@H]1O

Output line:
0.25
0.25

Hi, could you look up MIC for each item in my list?
1. CC(=O)N[C@H]1[C@H](O[C@@H]2c3ccc(c(Cl)c3)Oc3cc4cc(c3O)Oc3ccc(cc3Cl)C[C@H]3NC(=O)[C@H](NC(=N)N)c5ccc(O)c(c5)Oc5cc(O)cc(c5)[C@H](NC3=O)C(=O)N[C@H]4C(=O)N[C@H]3C(=O)N[C@@H]2C(=O)N[C@H](C(=O)O)c2cc(O)cc(O)c2-c2cc3ccc2O)O[C@H](CO)[C@@H](O)[C@@H]1O
2. CC(=O)N[C@H]1[C@H](O[C@@H]2c3ccc(c(Cl)c3)Oc3cc4cc(c3O)Oc3ccc(cc3Cl)C[C@H]3NC(=O)[C@H](n5cc(COCCOCCCC(F)(F)C(F)(F)C(F)(F)C(F)(F)F)nn5)c5ccc(O)c(c5)Oc5cc(O)cc(c5)[C@H](NC3=O)C(=O)N[C@H]4C(=O)N[C@H]3C(=O)N[C@@H]2C(=O)N[C@H](C(=O)O)c2cc(O)cc(O)c2-c2cc3ccc2O)O[C@H](CO)[C@@H](O)[C@@H]1O

Output line:
[0.125, 1]

Hi, could you look up MIC for each item in my list?
1. CN[C@H](CC(C)C)C(=O)N[C@H]1C(=O)N[C@@H](CC(N)=O)C(=O)N[C@H]2C(=O)N[C@H]3C(=O)N[C@H](C(=O)N[C@H](C(=O)O)c4cc(O)cc(O)c4-c4cc3ccc4O)[C@H](O[C@H]3C[C@](C)(N)[C@@H](O)[C@H](C)O3)c3ccc(c(Cl)c3)Oc3cc2cc(c3O[C@@H]2O[C@H](CO)[C@@H](O)[C@H](O)[C@H]2O[C@H]2C[C@](C)(NCc3ccc(-c4ccc(Cl)cc4)cc3)[C@@H](O)[C@H](C)O2)Oc2ccc(cc2Cl)[C@H]1O [ORI, oritavancin, reference compound]
2. CC(=O)N[C@H]1[C@H](O[C@@H]2c3ccc(c(Cl)c3)Oc3cc4cc(c3O)Oc3ccc(cc3Cl)C[C@H]3NC(=O)[C@H](NC(=O)CCC(F)(F)C(F)(F)C(F)(F)C(F)(F)C(F)(F)C(F)(F)C(F)(F)C(F)(F)F)c5ccc(O)c(c5)Oc5cc(O)cc(c5)[C@H](NC3=O)C(=O)N[C@H]4C(=O)N[C@H]3C(=O)N[C@@H]2C(=O)N[C@H](C(=O)O)c2cc(O)cc(O)c2-c2cc3ccc2O)O[C@H](CO)[C@@H](O)[C@@H]1O

Output line:
[0.0625, 0.25]

src = paper PMC9511441
